- Tested on: Turnip (TP)
- protocol notes: Post-emergence herbicide test
- Format: in vivo, Brassica sp.
- cond: Brassica rapa, post-emergence, 336 h; 8 lb/acre; two weeks after treatment
Lab note - cut at 70% for pest or weed control at 8966.8 g/ha: Condition met if strictly below, Condition not met if not.

The examples below pair each entry with its known result.
- molecule: "CNC(=O)Nc1nnc(-c2cccc(Cl)c2)s1 [Example 72]"
  target system: "Turnip (TP)"
  cat: "Condition met"
- molecule: "CNC(=O)N(C)c1nnc(SC)s1 [Example 38]"
  target system: "Turnip (TP)"
  cat: "Condition not met"
- molecule: "CNC(=O)Nc1nnc(S(C)(=O)=O)s1 [Example 33]"
  target system: "Turnip (TP)"
  cat: "Condition not met"
- molecule: "CCCNC(=O)Nc1nnc(C(F)(F)F)s1 [Example 10]"
  target system: "Turnip (TP)"
  cat: "Condition met"
- molecule: "CCCSc1nnc(N(C)C(=O)NC)s1 [Example 69]"
  target system: "Turnip (TP)"
  cat: "Condition not met"
- molecule: "Cc1nnc(NC(=O)N(C)C)s1 [Example 19]"
  target system: "Turnip (TP)"
  cat: "Condition met"
- molecule: "C=CCNC(=O)Nc1nnc(SC)s1 [Example 31]"
  target system: "Turnip (TP)"
  cat: "Condition met"
- molecule: "CSc1nnc(NC(=O)NC(C)C)s1 [Example 30]"
  target system: "Turnip (TP)"
  cat: "Condition met"

INPUT: Dear colleague, could you confirm whether pest or weed control at 8966.8 g/ha of CNC(=O)Nc1nnc(-c2ccc(Cl)cc2Cl)s1 [Example 75] falls below 70%? Thanks.
OUTPUT: Condition not met

INPUT: Lab note: pest or weed control at 8966.8 g/ha threshold 70%. Does this molecule come in strictly under it? CNC(=O)N(C)c1nnc(C(C)(C)C)s1 [Example 42]
OUTPUT: Condition not met

INPUT: Below 70% on pest or weed control at 8966.8 g/ha? Entry CC(C)NC(=O)Nc1nnc(C(F)(F)F)s1 [Example 11]
OUTPUT: Condition met

INPUT: Please determine if CNC(=O)Nc1nnc(SC)s1 [Example 26] is below 70% in terms of pest or weed control at 8966.8 g/ha.
OUTPUT: Condition not met

INPUT: Below 70% on pest or weed control at 8966.8 g/ha? Entry CNC(=O)Nc1nnc(CC(C)C)s1 [Example 21]
OUTPUT: Condition met

* * *

- Tested on: Cotton (CT)
- protocol notes: Post-emergence herbicide test
- Type: in vivo, Gossypium hirsutum var. DPL smooth leaf
- cond: Gossypium hirsutum, post-emergence, 336 h; 8 lb/acre; two weeks after treatment
experimental readout: pest or weed control at 8966.8 g/ha (%)
Form entry: value (%) — number only.

- smiles record: "CCc1nnc(NC(=O)N(C)C)s1"
  pest or weed control at 8966.8 g/ha [%]: 80
- smiles record: "CNC(=O)N(C)c1nnc(SC)s1"
  pest or weed control at 8966.8 g/ha [%]: 100
- smiles record: "CNC(=O)Nc1nnc(OC)s1"
  pest or weed control at 8966.8 g/ha [%]: 70
- smiles record: "Cc1nnc(NC(=O)N(C)C)s1"
  pest or weed control at 8966.8 g/ha [%]: 40

INPUT: For Cotton (CT), provide pest or weed control at 8966.8 g/ha of "CCCNC(=O)Nc1nnc(C(F)(F)F)s1" please.
OUTPUT: 60
